Measured Binding affinity (relative to RRGVRR) (value relative to the RRGVRR sequence), listed per entry for reference.
# TESTED ON: acetylcholine receptor
# MEASUREMENT PROTOCOL: SPR, AchR immobilized on chip
Answer with the value's number alone.

RRRGVRR | 185

Problem: Return reported Binding affinity (relative to RRGVRR) (value relative to the RRGVRR sequence). Input binder: RRGVRRH
Result: 154

Problem: Give me measured Binding affinity (relative to RRGVRR) (value relative to the RRGVRR sequence), please, for this binder: RRGVRRA
Result: 118

Problem: Give Binding affinity (relative to RRGVRR) (value relative to the RRGVRR sequence) for HRRGVRR
Result: 160

Problem: Entry RRGVRRR needs its Binding affinity (relative to RRGVRR) (value relative to the RRGVRR sequence) filled in; supply it.
Result: 188

Problem: State its Binding affinity (relative to RRGVRR) (value relative to the RRGVRR sequence) for this binder: RRGVRRD
Result: 61

Problem: For RRGVRRK , write its Binding affinity (relative to RRGVRR) (value relative to the RRGVRR sequence).
Result: 171

Problem: Item RRGVRRP : provide Binding affinity (relative to RRGVRR) (value relative to the RRGVRR sequence)
Result: 142
